In this section, each of the sequences is paired with its reported OT1 (sgRNA Log(2) fold change, OT-I selection versus control T cells).
System: B16F10-Cas9 cells pulsed with SIINFEKL peptide, co-cultured with OT-I T cells
assayExplanation: Genome-scale CRISPR-Cas9 screen, selection with OT-I T cells
Format: cell-based, mouse
settings: Table 3; B16F10-Cas9 cells pulsed with SIINFEKL, co-cultured with OT-I T cells 1:1 for one day; negative = depleted, positive = enriched
Please give only the number in your answer, with no unit.

CTGCACCAATGTTGGTCACG (chemistry not fully specified) | 0.32
TGTTCTAGGAAACTACATGG (chemistry not fully specified) | -2.76
TAAAAGTCCCTCCCTCAAAG (chemistry not fully specified) | -2.56
CCGAGACCCCAATAGTGCAA (chemistry not fully specified) | 0.71
TTCAGATTCAGACATCAGAT (chemistry not fully specified) | -2.07

Enquiry: Field request: OT1 (sgRNA Log(2) fold change, OT-I selection versus control T cells) | item: GTTTCTGGCATCCAAAGTAG (chemistry not fully specified)
Return: -2.50

Enquiry: Query (sequence): CAAGAGCCAGACCTTGGATG (chemistry not fully specified) ; field requested: OT1 (sgRNA Log(2) fold change, OT-I selection versus control T cells)
Return: -2.86

Enquiry: State the recorded OT1 (sgRNA Log(2) fold change, OT-I selection versus control T cells) for this entry: GCTGCCCCGCAGGATCATCA (chemistry not fully specified)
Return: -2.94

Enquiry: Which OT1 (sgRNA Log(2) fold change, OT-I selection versus control T cells) reading was recorded for the sequence GAACACTCAGCAAATTACAG (chemistry not fully specified) ?
Return: -2.58

Enquiry: If you can, please state the reported OT1 (sgRNA Log(2) fold change, OT-I selection versus control T cells) value of CAGCCTGCTGAGGATCCAGA (chemistry not fully specified) .
Return: -2.33
